measured-target: HIV-1 YU-2 gp120 (HIV-1 (YU-2), UniProt P35961)
test: SPR
readout: log10 Kd (log10 of the value in nM)
Note the log scale: values are log10 of Kd expressed in nM.

Reported log10 Kd for Fab m18 F99A (HCDR3) (Fab, V domains shown) VH: VQLLESGPGVVKPSETLSLTCTVSGASVNNYYWTWVRQPPGKGLEWIGNVYDSGDTNYNPSLSSRLSLSMDTSKNQFSLRLSSVTAADTATYYCARYHRHAIRGPLSFDYWGRGTLVTVSS VL: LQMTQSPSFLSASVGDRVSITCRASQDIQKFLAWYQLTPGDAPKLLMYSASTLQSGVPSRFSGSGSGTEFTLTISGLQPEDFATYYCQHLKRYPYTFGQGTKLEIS : what is it? 0.77

For the binder shown here, Fab m18 Y32A (HCDR1) (Fab, V domains shown) VH: VQLLESGPGVVKPSETLSLTCTVSGASVNNAYWTWVRQPPGKGLEWIGNVYDSGDTNYNPSLSSRLSLSMDTSKNQFSLRLSSVTAADTATYYCARYHRHFIRGPLSFDYWGRGTLVTVSS VL: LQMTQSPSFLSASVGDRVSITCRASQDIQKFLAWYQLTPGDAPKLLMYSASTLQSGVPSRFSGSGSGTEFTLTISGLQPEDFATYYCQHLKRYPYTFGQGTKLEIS , give the reported log10 Kd. -0.40

Fill blank: measured log10 Kd of the binder Fab m18 T57A (HCDR2) (Fab, V domains shown) VH: VQLLESGPGVVKPSETLSLTCTVSGASVNNYYWTWVRQPPGKGLEWIGNVYDSGDANYNPSLSSRLSLSMDTSKNQFSLRLSSVTAADTATYYCARYHRHFIRGPLSFDYWGRGTLVTVSS VL: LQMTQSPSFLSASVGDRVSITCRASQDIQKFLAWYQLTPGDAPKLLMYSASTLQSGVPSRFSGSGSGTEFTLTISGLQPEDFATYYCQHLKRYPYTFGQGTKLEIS is ____. 0.40

Sample Fab m18 S56A (LCDR2) (Fab, V domains shown) VH: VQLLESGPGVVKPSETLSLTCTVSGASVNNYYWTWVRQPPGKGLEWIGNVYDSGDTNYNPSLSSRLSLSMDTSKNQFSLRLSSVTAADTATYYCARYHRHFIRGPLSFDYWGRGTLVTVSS VL: LQMTQSPSFLSASVGDRVSITCRASQDIQKFLAWYQLTPGDAPKLLMYSASTLQAGVPSRFSGSGSGTEFTLTISGLQPEDFATYYCQHLKRYPYTFGQGTKLEIS — what was its log10 Kd? 1.41

Look at this binder and give its reported log10 Kd. Fab m18 Y33F (HCDR1) (Fab, V domains shown) VH: VQLLESGPGVVKPSETLSLTCTVSGASVNNYFWTWVRQPPGKGLEWIGNVYDSGDTNYNPSLSSRLSLSMDTSKNQFSLRLSSVTAADTATYYCARYHRHFIRGPLSFDYWGRGTLVTVSS VL: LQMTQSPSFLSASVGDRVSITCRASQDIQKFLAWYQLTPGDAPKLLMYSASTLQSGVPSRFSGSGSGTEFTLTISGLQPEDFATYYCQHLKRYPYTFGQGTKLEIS 1.75

Fill in the blank: the reported log10 Kd of Fab m18 S52A (LCDR2) (Fab, V domains shown) VH: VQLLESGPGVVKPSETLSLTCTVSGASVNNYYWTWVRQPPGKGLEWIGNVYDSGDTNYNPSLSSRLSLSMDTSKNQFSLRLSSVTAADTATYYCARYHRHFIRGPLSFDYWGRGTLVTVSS VL: LQMTQSPSFLSASVGDRVSITCRASQDIQKFLAWYQLTPGDAPKLLMYSAATLQSGVPSRFSGSGSGTEFTLTISGLQPEDFATYYCQHLKRYPYTFGQGTKLEIS is ____. 0.67

Look up log10 Kd: Fab m18 D53A (HCDR2) (Fab, V domains shown) VH: VQLLESGPGVVKPSETLSLTCTVSGASVNNYYWTWVRQPPGKGLEWIGNVYASGDTNYNPSLSSRLSLSMDTSKNQFSLRLSSVTAADTATYYCARYHRHFIRGPLSFDYWGRGTLVTVSS VL: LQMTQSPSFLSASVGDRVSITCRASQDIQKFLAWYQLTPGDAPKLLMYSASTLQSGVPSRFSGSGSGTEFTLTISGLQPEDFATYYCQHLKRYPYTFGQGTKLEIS 0.85

Which log10 Kd reading was recorded for the binder Fab m18 T53A (LCDR2) (Fab, V domains shown) VH: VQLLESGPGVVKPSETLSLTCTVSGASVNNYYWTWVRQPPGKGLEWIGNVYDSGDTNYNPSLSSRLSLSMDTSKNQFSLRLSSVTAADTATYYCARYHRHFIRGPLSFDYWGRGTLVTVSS VL: LQMTQSPSFLSASVGDRVSITCRASQDIQKFLAWYQLTPGDAPKLLMYSASALQSGVPSRFSGSGSGTEFTLTISGLQPEDFATYYCQHLKRYPYTFGQGTKLEIS ? 1.55
